- measurementTarget: UniProt P30542
- Sequence (P30542 whole entry): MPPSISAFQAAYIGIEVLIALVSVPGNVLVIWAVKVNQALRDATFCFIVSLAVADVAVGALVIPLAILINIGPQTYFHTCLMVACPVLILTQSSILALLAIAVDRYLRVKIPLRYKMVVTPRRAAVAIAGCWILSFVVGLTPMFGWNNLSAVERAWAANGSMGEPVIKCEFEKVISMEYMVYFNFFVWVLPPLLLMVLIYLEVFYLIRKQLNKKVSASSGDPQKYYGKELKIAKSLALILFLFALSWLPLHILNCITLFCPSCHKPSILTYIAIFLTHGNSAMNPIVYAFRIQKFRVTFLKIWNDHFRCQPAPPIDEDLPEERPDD
- Assay type: cell membranes, CHO, Membrane
- assaySetup: read-out: Ki
Property: pKi; scope: individual compounds
pKi is a log-scale quantity: -log10 of the concentration expressed in molar.

- compound: "C[S+]([O-])c1ccc(-c2nc(-c3ccncc3)c(-c3ccc(F)cc3)[nH]2)cc1 (configuration not stated)"
  pKi: 5.76

stdin: Would you mind telling me what pKi value was observed for O=c1c(-c2ccc(O)cc2)coc2cc(O)cc(O)c12 ?
stdout: 4.94

---

- measurementTarget: 5-hydroxytryptamine receptor 2B (Homo sapiens); also: in other assays of this panel Not Active means under 50% inhibition at 10 µM
- Sequence (P41595 whole entry): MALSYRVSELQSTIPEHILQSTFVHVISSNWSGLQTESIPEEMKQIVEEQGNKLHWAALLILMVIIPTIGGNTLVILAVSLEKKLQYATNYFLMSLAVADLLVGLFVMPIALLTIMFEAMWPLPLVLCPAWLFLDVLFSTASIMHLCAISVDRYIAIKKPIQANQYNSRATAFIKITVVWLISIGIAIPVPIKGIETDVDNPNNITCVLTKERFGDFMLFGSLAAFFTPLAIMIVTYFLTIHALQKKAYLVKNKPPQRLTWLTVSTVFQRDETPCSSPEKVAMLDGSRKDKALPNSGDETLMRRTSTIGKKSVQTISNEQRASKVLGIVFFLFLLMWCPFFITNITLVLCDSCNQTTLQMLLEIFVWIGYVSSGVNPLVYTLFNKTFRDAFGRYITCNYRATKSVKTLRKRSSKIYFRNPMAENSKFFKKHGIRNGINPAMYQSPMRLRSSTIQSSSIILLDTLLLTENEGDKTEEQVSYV
- Format: cell membranes, CHO-K1, Membrane
- assaySetup: read-out: IC50
measurementLabel: IC50 (nM)
Give the value, in units of nM, as a plain number.

As a guide, the following entries are already answered.
- compound: "CN1CCCC(CN2c3ccccc3Sc3ccccc32)C1 (centres undefined) [MEPAZINE]"
  IC50 [nM]: 514
- compound: "CCCCCCCCNC(C)C(O)c1ccc(SC(C)C)cc1 (centres undefined) [SULOCTIDIL]"
  IC50 [nM]: 939
- compound: "CC(C)C[C@H]1C(=O)N2CCC[C@H]2[C@]2(O)O[C@](NC(=O)[C@@H]3C=C4c5cccc6[nH]cc(c56)C[C@H]4N(C)C3)(C(C)C)C(=O)N12 [ERGOCRYPTINE]"
  IC50 [nM]: 13

// next entry
stdin: Report IC50 for Clc1ccc(COC(Cn2ccnc2)c2ccc(Cl)cc2Cl)c(Cl)c1 (centres undefined) [MICONAZOLE] please.
stdout: 5550

---

- measurementTarget: 5-hydroxytryptamine receptor 4 (Cavia porcellus, UniProt O70528); also: in other assays of this panel Not Active means under 50% inhibition at 10 µM
- Sequence (O70528 whole entry): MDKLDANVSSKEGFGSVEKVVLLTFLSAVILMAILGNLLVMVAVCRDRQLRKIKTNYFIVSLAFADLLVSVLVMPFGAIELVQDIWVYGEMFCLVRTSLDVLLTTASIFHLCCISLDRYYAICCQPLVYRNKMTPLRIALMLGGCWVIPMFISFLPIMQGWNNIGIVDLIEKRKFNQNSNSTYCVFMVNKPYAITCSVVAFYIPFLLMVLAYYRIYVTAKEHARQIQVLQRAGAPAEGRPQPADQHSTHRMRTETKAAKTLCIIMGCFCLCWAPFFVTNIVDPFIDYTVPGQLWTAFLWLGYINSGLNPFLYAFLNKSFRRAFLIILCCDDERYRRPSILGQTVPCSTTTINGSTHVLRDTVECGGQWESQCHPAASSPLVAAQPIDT
- Type: cell membranes, Dunkin-Hartley, Striatum, Membrane
- assaySetup: read-out: Ki
measurementLabel: Ki (nM)
Provide the reading as a plain figure in nM.

stdin: State the recorded Ki for this entry: C[S+]([O-])c1ccc(-c2nc(-c3ccncc3)c(-c3ccc(F)cc3)[nH]2)cc1 (stereo unspecified)
stdout: 1760

---

- measurementNotes: DRUGMATRIX: Glutamate, NMDA, Phencyclidine radioligand binding (ligand: [3H] TCP)
- Assay type: cell membranes, Rattus norvegicus, Wistar, Cerebral cortex, Membrane
- assaySetup: Not Active = under 50% inhibition at 10 µM

- substance: "COLISTIN"
  IC50: "Not Active"
- substance: "COBALTOUS CHLORIDE"
  IC50: "Not Active"
- substance: "ZIRCONIUM(IV) CHLORIDE"
  IC50: "Not Active"
- substance: "TRANSPLATIN"
  IC50: "Not Active"

---

- measurementNotes: DRUGMATRIX: Calcium Channel Type L, Benzothiazepine radioligand binding (ligand: [3H] Diltiazem)
- Assay type: cell membranes, Rattus norvegicus, Wistar, Brain, Membrane
- assaySetup: Not Active = under 50% inhibition at 10 µM

- molecule: "CCN(C(C)=O)c1cccc(-c2ccnc3c(C#N)cnn23)c1"
  IC50: "Not Active"
- molecule: "C[C@@H]1O[C@@H](O[C@H]2C[C@@H](O)[C@]3(CO)[C@H]4[C@H](O)C[C@]5(C)[C@@H](C6=CC(=O)OC6)CC[C@]5(O)[C@@H]4CC[C@]3(O)C2)[C@H](O)[C@H](O)[C@H]1O"
  IC50: "Not Active"
- molecule: "CC(C)(C(=O)O)c1ccc(C(O)CCCN2CCC(C(O)(c3ccccc3)c3ccccc3)CC2)cc1 (stereo not drawn) [FEXOFENADINE]"
  IC50: "Not Active"

---

- measurementTarget: Cytochrome P450 2D6 (Homo sapiens, UniProt P10635); also: in other assays of this panel Not Active means under 50% inhibition at 10 µM
- Sequence (P10635 whole entry): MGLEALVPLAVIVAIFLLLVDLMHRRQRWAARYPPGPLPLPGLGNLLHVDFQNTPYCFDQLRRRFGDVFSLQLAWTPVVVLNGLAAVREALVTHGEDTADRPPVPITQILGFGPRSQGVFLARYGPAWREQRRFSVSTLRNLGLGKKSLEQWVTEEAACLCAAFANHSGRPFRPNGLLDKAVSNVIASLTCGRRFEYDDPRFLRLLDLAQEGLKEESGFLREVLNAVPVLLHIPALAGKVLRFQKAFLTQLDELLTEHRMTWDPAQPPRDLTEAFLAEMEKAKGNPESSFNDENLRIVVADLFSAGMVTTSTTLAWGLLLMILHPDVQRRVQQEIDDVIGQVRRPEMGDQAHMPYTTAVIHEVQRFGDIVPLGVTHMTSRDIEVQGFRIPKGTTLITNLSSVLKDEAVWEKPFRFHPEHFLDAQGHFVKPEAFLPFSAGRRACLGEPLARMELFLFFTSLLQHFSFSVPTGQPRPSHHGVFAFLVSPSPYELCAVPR
- assaySetup: bti-tn-5b1-4
measurementLabel: Ki

Example molecules with recorded Ki:
- molecule: "C[C@@H]1O[C@@H](O[C@H]2C[C@@H](O)[C@]3(CO)[C@H]4[C@H](O)C[C@]5(C)[C@@H](C6=CC(=O)OC6)CC[C@]5(O)[C@@H]4CC[C@]3(O)C2)[C@H](O)[C@H](O)[C@H]1O [OUABAIN]"
  measurementLabel: "Ki"
  result: "Not Active"
- molecule: "O=C(O)CC(O)(CC(=O)O)C(=O)O [CITRIC ACID]"
  measurementLabel: "Ki"
  result: "Not Active"
- molecule: "NS(=O)(=O)c1cc(C2(O)NC(=O)c3ccccc32)ccc1Cl (stereo not drawn) [CHLORTHALIDONE]"
  measurementLabel: "Ki"
  result: "Not Active"
- molecule: "CC(=O)OCC(=O)[C@@]1(O)CC[C@H]2[C@@H]3CCC4=CC(=O)CC[C@]4(C)[C@@]3(F)[C@@H](O)C[C@@]21C [FLUDROCORTISONE ACETATE]"
  measurementLabel: "Ki"
  result: "Not Active"
- molecule: "CN1CCN(C2=Nc3cc(Cl)ccc3Nc3ccccc32)CC1 [CLOZAPINE]"
  measurementLabel: "Ki"
  result: "Not Active"
- molecule: "CN(C)CCC=C1c2ccccc2CCc2ccccc21 [AMITRIPTYLINE]"
  measurementLabel: "Ki"
  result: "Not Active"
- molecule: "CC1=NN(c2ccccc2)C(=O)C1 [EDARAVONE]"
  measurementLabel: "Ki"
  result: "Not Active"
- molecule: "CC(C)(C)NCC(O)COc1cccc2c1CC(O)C(O)C2 (stereo not drawn) [NADOLOL]"
  measurementLabel: "Ki"
  result: "Not Active"

stdin: # lookup: Ki of NC(=O)N1c2ccccc2CC(=O)c2ccccc21 [OXCARBAZEPINE]
stdout: Not Active

stdin: Cool, now CCc1ccc(CCOc2ccc(CC3SC(=O)NC3=O)cc2)nc1 (stereo not drawn) [PIOGLITAZONE]
stdout: Not Active

stdin: How about this molecule: Cc1ccc(C(=O)c2ccc(CC(=O)O)n2C)cc1 [TOLMETIN]
stdout: Not Active

stdin: Then what about the molecule O=C(O)c1ccccc1O [SALICYLIC ACID] ?
stdout: Not Active

stdin: Try this molecule next: C[C@H]1COc2c(N3CCN(C)CC3)c(F)cc3c(=O)c(C(=O)O)cn1c23.C[C@H]1COc2c(N3CCN(C)CC3)c(F)cc3c(=O)c(C(=O)O)cn1c23.O [LEVOFLOXACIN]
stdout: Not Active

stdin: Repeat for the following molecule: CCCCC1=NC2(CCCC2)C(=O)N1Cc1ccc(-c2ccccc2-c2nnn[nH]2)cc1 [IRBESARTAN]
stdout: Not Active

stdin: Also need CC(=O)Oc1ccccc1C(=O)O [ASPIRIN] , thanks.
stdout: Not Active

stdin: Repeat with CN1CCCC(CN2c3ccccc3Sc3ccccc32)C1 (stereo not drawn) [MEPAZINE]
stdout: Not Active

stdin: Would you kindly repeat that for CS(=O)(=O)Nc1ccc([N+](=O)[O-])cc1Oc1ccccc1 [NIMESULIDE] ?
stdout: Not Active

stdin: Here is the next molecule: CN1CCC(=C2c3ccccc3CC(=O)c3sccc32)CC1 [KETOTIFEN]
stdout: Not Active

---

- measurementTarget: UniProt P21554
- Sequence (P21554 whole entry): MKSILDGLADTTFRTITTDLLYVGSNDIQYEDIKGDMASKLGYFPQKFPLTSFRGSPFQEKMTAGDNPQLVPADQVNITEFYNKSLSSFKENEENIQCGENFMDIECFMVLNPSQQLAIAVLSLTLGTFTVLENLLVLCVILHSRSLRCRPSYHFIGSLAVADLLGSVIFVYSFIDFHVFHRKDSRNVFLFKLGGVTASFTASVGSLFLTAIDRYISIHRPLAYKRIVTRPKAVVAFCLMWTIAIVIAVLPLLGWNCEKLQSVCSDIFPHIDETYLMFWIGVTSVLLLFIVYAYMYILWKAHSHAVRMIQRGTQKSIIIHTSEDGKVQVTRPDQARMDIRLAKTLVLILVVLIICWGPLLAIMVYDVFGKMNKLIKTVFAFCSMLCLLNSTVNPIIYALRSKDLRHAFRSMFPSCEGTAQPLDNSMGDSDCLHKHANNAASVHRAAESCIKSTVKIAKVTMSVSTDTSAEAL
- Type: cell membranes, Chem-1, Membrane
- assaySetup: read-out: Ki
measurementLabel: pKi
The value called pKi is obtained by taking minus log10 of the concentration in mol/L.

stdin: // lookup pKi for Clc1ccc(COC(Cn2ccnc2)c2ccc(Cl)cc2Cl)c(Cl)c1 (stereo unspecified) [MICONAZOLE]
stdout: 4.78

---

- measurementTarget: B2 bradykinin receptor (Homo sapiens); also: in other assays of this panel Not Active means under 50% inhibition at 10 µM
- Sequence (P30411 whole entry): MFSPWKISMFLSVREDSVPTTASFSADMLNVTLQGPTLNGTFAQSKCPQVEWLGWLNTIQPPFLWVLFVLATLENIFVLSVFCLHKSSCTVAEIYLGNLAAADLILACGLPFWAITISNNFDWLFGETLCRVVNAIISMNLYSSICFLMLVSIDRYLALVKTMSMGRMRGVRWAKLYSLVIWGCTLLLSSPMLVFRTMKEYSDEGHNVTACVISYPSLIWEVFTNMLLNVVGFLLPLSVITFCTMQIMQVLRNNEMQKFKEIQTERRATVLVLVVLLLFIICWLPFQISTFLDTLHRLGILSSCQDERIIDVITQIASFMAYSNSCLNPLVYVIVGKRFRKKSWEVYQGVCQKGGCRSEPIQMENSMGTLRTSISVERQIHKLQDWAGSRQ
- Assay type: cell membranes, Membrane
- assaySetup: chem-1
measurementLabel: IC50

In the examples that follow, each entry is paired with its recorded IC50.
- compound: "NNCCc1ccccc1 [PHENELZINE]"
  measurementTarget: "B2 bradykinin receptor (Homo sapiens)"
  IC50: "Not Active"
- compound: "C[N+](C)(C)C[C@H](O)CC(=O)[O-] [LEVOCARNITINE]"
  measurementTarget: "B2 bradykinin receptor (Homo sapiens)"
  IC50: "Not Active"
- compound: "C#C[C@]1(O)CC[C@H]2[C@@H]3CCC4=CC(=O)CC[C@]4(C)[C@H]3CC[C@@]21C [ETHISTERONE]"
  measurementTarget: "B2 bradykinin receptor (Homo sapiens)"
  IC50: "Not Active"
- compound: "CCC1=C(C)CN(C(=O)NCCc2ccc(S(=O)(=O)NC(=O)N[C@H]3CC[C@H](C)CC3)cc2)C1=O [GLIMEPIRIDE]"
  measurementTarget: "B2 bradykinin receptor (Homo sapiens)"
  IC50: "Not Active"
- compound: "C[C@H]1O[C@H](O[C@H]2[C@H](O)[C@@H](O)[C@@H](O[C@H]3[C@H](O)[C@@H](O)C(O)O[C@@H]3CO)O[C@@H]2CO)[C@H](O)[C@@H](O)[C@@H]1N[C@H]1C=C(CO)[C@@H](O)[C@H](O)[C@H]1O (stereo partly specified) [ACARBOSE]"
  measurementTarget: "B2 bradykinin receptor (Homo sapiens)"
  IC50: "Not Active"

stdin: Sample NC(=O)N1c2ccccc2CC(=O)c2ccccc21 [OXCARBAZEPINE] — what was its IC50?
stdout: Not Active

stdin: Can you handle CCn1cc(C(=O)O)c(=O)c2cc(F)c(N3CCNC(C)C3)c(F)c21 (stereo unspecified) [LOMEFLOXACIN] next?
stdout: Not Active

stdin: Also, O=c1[nH]c(=O)n([C@H]2C[C@H](O)[C@@H](CO)O2)cc1F [FLOXURIDINE] please.
stdout: Not Active

stdin: Note, next up: COC(=O)[C@H]1[C@H]2C[C@@H]3c4[nH]c5cc(OC)ccc5c4CCN3C[C@H]2C[C@@H](OC(=O)c2cc(OC)c(OC)c(OC)c2)[C@@H]1OC [RESERPINE]
stdout: Not Active

stdin: Please give the result for Cc1c(O)cccc1C(=O)N[C@@H](CSc1ccccc1)[C@H](O)CN1C[C@H]2CCCC[C@H]2C[C@H]1C(=O)NC(C)(C)C too.
stdout: Not Active

stdin: Okay, and CCCCC1=NC2(CCCC2)C(=O)N1Cc1ccc(-c2ccccc2-c2nnn[nH]2)cc1 [IRBESARTAN] ?
stdout: Not Active

stdin: Further, for CNC1=Nc2ccc(Cl)cc2C(c2ccccc2)=[N+]([O-])C1 [CHLORDIAZEPOXIDE] ?
stdout: Not Active

stdin: Continue with ClC(Cl)(Cl)Cl [CARBON TETRACHLORIDE]
stdout: Not Active

stdin: Okay, and COc1ccccc1N ?
stdout: Not Active

stdin: Likewise for CC(C)(C)NCC(O)COc1cccc2c1CC(O)C(O)C2 (stereo unspecified) [NADOLOL] ?
stdout: Not Active

stdin: Again, but for CN1CCN(c2c(F)cc3c(=O)c(C(=O)O)cn(CCF)c3c2F)CC1 [FLEROXACIN]
stdout: Not Active
